Below is a list of entries, each paired with its recorded IC50 at 72 h value.
- Method Description: Cytotoxicity against human NCM460 cells assessed as inhibition of cell proliferation measured after 72 hrs by CCK-8 assay
- Type: toxicity, cell-based

| Structure Smiles | Observed Result |
| --- | --- |
| COc1ccc(/C=C(/C(=O)N2CCN(c3ccc(C)cc3)CC2)c2cc(OC)c(OC)c(OC)c2)cc1O | 1090 nM |

Please look at the following molecule next.
Name the recorded IC50 at 72 h of the item "COc1ccc(/C=C\c2cc(OC)c(OC)c(OC)c2)cc1O" in your answer.
11 nM
